Target: Protein (capsid assembly) (Hepatitis B virus genotype D subtype ayw, UniProt P03146)
Sequence (P03146 whole entry): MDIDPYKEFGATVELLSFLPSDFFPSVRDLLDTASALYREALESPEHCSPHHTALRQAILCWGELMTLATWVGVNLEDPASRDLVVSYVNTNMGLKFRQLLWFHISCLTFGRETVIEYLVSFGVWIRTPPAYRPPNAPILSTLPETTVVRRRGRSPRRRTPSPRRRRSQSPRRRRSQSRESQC
Experiment: Protein inhibition (capsid assembly inhibition), Table 1
Assay type: biochemical
Conditions: @30 μM; read-out: Protein % inhibition rate (@30 μM)
Recorded inhibition at 30 µM for the following compounds
Numbers only; they are read as %.

Solved entries (count: 5):
compound	system_tested	inhibition at 30 µM / %
COc1ccc(N(Cc2nnc3n2CCCC3)C(=O)Nc2ccc(F)c(Cl)c2)cc1	Protein (capsid assembly) (Hepatitis B virus genotype D subtype ayw, UniProt P03146)	96.2
O=C(Nc1ccc(F)c(Cl)c1)N(Cc1nnc2n1CCCCC2)c1ccc2[nH]ccc2c1	Protein (capsid assembly) (Hepatitis B virus genotype D subtype ayw, UniProt P03146)	96.8
COc1ccc(N(C(=O)Nc2ccc(F)c(Cl)c2)C(C)c2nnc3n2CCCCC3)cc1 (centres unmarked)	Protein (capsid assembly) (Hepatitis B virus genotype D subtype ayw, UniProt P03146)	47
COc1ccc(N(Cc2nnc3n2CCOCC3)C(=O)Nc2ccc(F)c(Cl)c2)cc1	Protein (capsid assembly) (Hepatitis B virus genotype D subtype ayw, UniProt P03146)	65
COc1ccc(N(Cc2nnc3n2CCOCC3)C(=O)Nc2ccc(F)c(Cl)c2)cn1	Protein (capsid assembly) (Hepatitis B virus genotype D subtype ayw, UniProt P03146)	82.8

Entry N#Cc1ccc(N(Cc2nnc3n2CCCCC3)C(=O)Nc2ccc(F)c(Cl)c2)cc1 ; inhibition at 30 µM = 36

What the record says about COc1ccc(N(Cc2nnc(C(C)C)n2C)C(=O)Nc2ccc(F)c(Cl)c2)cc1 : inhibition at 30 µM is 1

The measured inhibition at 30 µM associated with COc1ccc(N(Cc2nnc(-c3ccccc3)n2C)C(=O)Nc2ccc(F)c(Cl)c2)cc1 reads -1

----------
Assay: Cell viability assay (EZ-Cytox) in HepAD38 cells
Type: cell-based
Details: human, @100 μM, 65 hours of treatment, read-out: Cytotoxicity % Livability (@100 μM)
readout: viability at 65 h, 100 µM (%)
Please reply with the bare figure in % and do not write the unit itself.

Below: 5 compounds and their reported viability at 65 h, 100 µM.
compound	viability at 65 h, 100 µM [%]
COCCn1c(CN(C(=O)Nc2ccc(F)c(Cl)c2)c2ccc(OC)nc2)nnc1C(F)F	84.2
COc1ccc(N(Cc2nnc(C(F)F)n2C)C(=O)Nc2ccc(F)c(Cl)c2)cn1	102
O=C(Nc1ccc(F)c(Cl)c1)N(Cc1nnc2n1CCOCC2)c1ccnc(O)c1	90.5
COc1ccc(N(Cc2nnc3n2CCOCC3)C(=O)Nc2ccc(F)c(Cl)c2)cc1	91
CC(c1nnc2n1CCOCC2)N(C(=O)Nc1ccc(F)c(Cl)c1)c1ccc2c(c1)OCO2 (centres unmarked)	88.3

Form: compound = COc1ccc(N(Cc2nnc(C)n2C(C)C)C(=O)Nc2ccc(F)c(Cl)c2)cc1 ; viability at 65 h, 100 µM = 91.5

The recorded viability at 65 h, 100 µM for COc1ccc(N(Cc2nnc3n2CCCCC3)C(=O)Nc2ccc(F)c(Cl)c2)cc1 is 91.9

Entry under test: COc1ccc(N(C(=O)Nc2ccc(F)c(Cl)c2)C(C)c2nnc3n2CCCCC3)cc1 (centres unmarked) . Its viability at 65 h, 100 µM was 95.1

Looking up O=C(Nc1cccc(Cl)c1)N(Cc1nnc2n1CCCC2)c1ccc2c(c1)OCO2 , I found its viability at 65 h, 100 µM recorded as 97.1

Short answer for Cc1cccc(NC(=O)N(Cc2nnc3n2CCCCC3)c2ccc3c(c2)OCO3)c1 : viability at 65 h, 100 µM was 95

----------
Molecular target: Protein (capsid assembly) (Hepatitis B virus genotype D subtype ayw, UniProt P03146)
Test: Protein inhibition (capsid assembly inhibition), Table 1
Assay type: biochemical
Conditions: NVR value of the same run in brackets; read-out: Protein EC50
A collection of compounds and their measured EC50
Remember to quote the unit after the number.

Observe how each entry below is paired with its result.
smiles_input	observed_value
O=C(Nc1ccc(F)c(Cl)c1)N(Cc1nnc2n1CCCCC2)c1ccon1	1500 nM
CNc1ccc(N(Cc2nnc3n2CCCCC3)C(=O)Nc2ccc(F)c(Cl)c2)cc1	2800 nM
COc1ccc(N(Cc2nnc3n2CCCCC3)C(=O)Nc2ccc(F)c(Cl)c2)cn1	1400 nM

Given the compound N#Cc1ccc(N(Cc2nnc3n2CCCCC3)C(=O)Nc2ccc(F)c(Cl)c2)cc1 and test system Protein (capsid assembly) (Hepatitis B virus genotype D subtype ayw, UniProt P03146), the measured EC50 is 4000 nM

----------
Reported pEC50 is given for each of the following compounds.
Molecular target: Protein (capsid assembly) (Hepatitis B virus genotype D subtype ayw, UniProt P03146)
Experiment: Protein inhibition (capsid assembly inhibition), Table 1
Format: biochemical
Details: NVR value of the same run in brackets; read-out: Protein EC50
For clarity, pEC50 is expressed as the negative log10 of concentration in mol/L.

Use the examples below as a reference point.
compound	observed_value
COc1ccc(N(Cc2nnc3n2CCCC3)C(=O)Nc2ccc(F)c(Cl)c2)cc1 [Example 43]	5.48
CC(C)Oc1ccc(N(Cc2nnc3n2CCCCC3)C(=O)Nc2ccc(F)c(Cl)c2)cc1 [Example 12]	5.60
O=C(Nc1cccc(Cl)c1)N(Cc1nnc2n1CCCC2)c1ccc2c(c1)OCO2 [Example 41]	5.54
COc1ccc(N(Cc2nnc(C)n2C)C(=O)Nc2ccc(F)c(Cl)c2)cc1 [Example 15]	4.54
CC(C)(C)OC(=O)n1ccc2cc(N(Cc3nnc4n3CCCCC4)C(=O)Nc3ccc(F)c(Cl)c3)ccc21 [Example 17]	4.89
O=C(Nc1ccc(F)c(Cl)c1)N(Cc1nnc2n1CCCCC2)c1ccc(F)c(F)c1 [Example 22]	5.59
O=C(Nc1ccc(F)c(Cl)c1)N(Cc1nnc2n1CCOC2)c1ccc2c(c1)OCO2 [Example 4]	5.17

Okay, now this compound:
Record O=C(Nc1ccc(F)c(Cl)c1)N(Cc1nnc2n1CCCCC2)c1ccc2[nH]ccc2c1 [Example 18] , field pEC50: 5.32

----------
Entries annotated with measured EC50
Molecular target: UniProtKB P03146
Test: Protein inhibition (capsid assembly inhibition), Table 1
Format: biochemical
Conditions: NVR value of the same run in brackets; read-out: Protein EC50
Record the value in µM, omitting the unit from your answer.

Entry O=C(Nc1ccc(F)c(Cl)c1)N(Cc1nnc2n1CCCCC2)c1cccc(C(F)(F)F)c1 [Example 21] , EC50 reported as 11

Summary for this compound, COc1ccc(N(Cc2nnc3n2CCCCC3)C(=O)Nc2ccc(F)c(Cl)c2)cc1 [Example 3] : EC50 is 1.6

COc1ccc(N(Cc2nnc(C)n2C2CCCC2)C(=O)Nc2ccc(F)c(Cl)c2)cc1 [Example 32] has a reported EC50 of 4.9

EC50 recorded for this compound, N#Cc1cccc(NC(=O)N(Cc2nnc3n2CCCCC3)c2ccc3c(c2)OCO3)c1 [Example 8] , is 1.8

----------
Molecular target: Protein (capsid assembly) (Hepatitis B virus genotype D subtype ayw, UniProt P03146)
Experiment: Protein inhibition (capsid assembly inhibition), Table 1
Assay type: biochemical
Conditions: NVR value of the same run in brackets; read-out: Protein EC50
Catalogue of EC50 values

// solved cases for EC50 follow
molecule	EC50
COc1ccc(N(Cc2nnc(C3CCCC3)n2C)C(=O)Nc2ccc(F)c(Cl)c2)cc1	16 µM
O=C(Nc1ccc(F)c(Cl)c1)N(Cc1nnc2n1CCOC2)c1ccc2c(c1)OCO2 [Example 42]	6.8 µM
O=C(Nc1ccc(F)c(Cl)c1)N(Cc1nnc2n1CCOCC2)c1ccc2c(c1)OCO2	1 µM
COc1ccc(N(C(=O)Nc2ccc(F)c(Cl)c2)C(C)c2nnc3n2CCCCC3)cc1 (centres unmarked)	3.1 µM

We now examine a further molecule.
According to the records, this molecule CC(c1nnc2n1CCOCC2)N(C(=O)Nc1ccc(F)c(Cl)c1)c1ccc2c(c1)OCO2 (centres unmarked) displays EC50 of 4.3 µM

----------
// CC50 at 65 h lookup, one value per entry
Assay: Cell viability assay (EZ-Cytox) in HepAD38 cells
Format: cell-based
Conditions: human, 65 hours of treatment, read-out: Cytotoxicity CC50

Solved cases (5 shown):
compound	CC50 at 65 h
O=C(Nc1ccc(F)c(Cl)c1)N(Cc1nnc2n1CCCCC2)c1ccon1 [Example 36]	> 100 µM
O=C(Nc1ccc(F)c(Cl)c1)N(Cc1nnc2n1CCOCC2)c1ccc2c(c1)OCO2 [Example 7]	> 100 µM
O=C(Nc1ccc(F)c(Cl)c1)N(Cc1nnc2n1CCOC2)c1ccc2c(c1)OCO2 [Example 42]	> 100 µM
COCCn1c(CN(C(=O)Nc2ccc(F)c(Cl)c2)c2ccc(OC)nc2)nnc1C(F)F [Example 51]	> 100 µM
COc1ccc(N(Cc2nnc(C(F)(F)F)n2CCO)C(=O)Nc2ccc(F)c(Cl)c2)cn1 [Example 50]	> 100 µM

get_value(item= COc1ccc(N(Cc2nnc(C(F)(F)F)n2C)C(=O)Nc2ccc(F)c(Cl)c2)cn1 [Example 49] , readout=CC50 at 65 h) returns > 100 µM

get_value(item= O=C(Nc1ccc(F)c(Cl)c1)N(Cc1nnc2n1CCOCC2)c1ccnc(O)c1 [Example 46] , readout=CC50 at 65 h) returns > 100 µM

In plain terms, COc1ccc(N(Cc2nnc3n2CCOCC3)C(=O)Nc2ccc(F)c(Cl)c2)cc1 [Example 27] has a documented CC50 at 65 h of > 100 µM

CC50 at 65 h reported for this compound COc1ccc(N(Cc2nnc(C(F)F)n2CCO)C(=O)Nc2ccc(F)c(Cl)c2)cn1 [Example 53] : > 100 µM

The reported CC50 at 65 h of the compound COc1ccc(N(Cc2nnc(-c3ccccc3)n2C)C(=O)Nc2ccc(F)c(Cl)c2)cc1 [Example 24] was > 100 µM

compound O=C(Nc1ccc(F)c(Cl)c1)N(Cc1nnc2n1CCCCC2)c1ccc(F)c(F)c1 [Example 22] , CC50 at 65 h observed: > 100 µM
